# experiment: superoxide lowering in aged yeast cells, pilot screen, validation compound set (AID 2706);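 further: yeast exposed to compound for one week at 30 degrees C before staining; 100% = mean of all compound wells on the same plate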
# experimentalParameters: S. cerevisiae aging, superoxide DHE fluorescence; at 10 µM; hits give low values
I'd appreciate it if you could supply superoxide response (% of plate) values for the items below.
# number only, unit % dropped from output

superoxide response (% of plate) lookup needed for Clc1ccc(COC(Cn2ccnc2)c2ccc(Cl)cc2Cl)c(Cl)c1 (stereo not drawn) , thanks.
76.7

State the recorded superoxide response (% of plate) for this entry: C[N+]1(C)[C@@H]2CC[C@H]1CC(OC(=O)C(CO)c1ccccc1)C2 (stereo partly drawn)
91

Entry under review: C[C@]12CCC(=O)C=C1CCC1C2CC[C@@]2(C)C1CC[C@@]2(O)CC#N (stereo partly drawn) . Reported superoxide response (% of plate)?
95.6

Looking for the measured superoxide response (% of plate) of CC(C)CC12CN3CCN(CC(C3)C1O)C2 (stereo not drawn) , can you help?
91.5

# query: superoxide response (% of plate) of entry OC1CCCCC1N1CCC(c2ccccc2)CC1 (stereo not drawn)
110

Any idea what superoxide response (% of plate) was measured for CC(Cc1ccccc1)NCC(=O)Nc1cc(N(C)C)nc2ccccc12 (stereo not drawn) ?
93.7

Item under review: COP(=O)(OC)C(O)C(Cl)(Cl)Cl (stereo not drawn) . Reported superoxide response (% of plate)?
94.8

Given CC(C)NC(C)C(=O)c1ccc2ccccc2c1 (stereo not drawn) , state its recorded superoxide response (% of plate).
121

Record request: superoxide response (% of plate) value, item C#C[C@]1(O)CC[C@H]2[C@@H]3CCC4=CC(=O)CC[C@]4(C)[C@H]3CC[C@@]21C
97.8

Form field: reported superoxide response (% of plate) of CC/C(=C\C=C\[C@@H]1C=C[C@@H]2CCC[C@H]2[C@@H]1C(=O)c1ccc[nH]1)[C@@H]1O[C@@H]([C@@H](C)C(=O)O)CC[C@@H]1C
94

I'd like to know its superoxide response (% of plate). The compound in question is COc1ccccc1CN1CCCCC1c1cccnc1 (stereo not drawn)
98.9

# get_value(readout='superoxide response (% of plate)', item= Cc1cc2c(C(C)C)c(O)c(O)c(C=O)c2c(O)c1-c1c(C)cc2c(C(C)C)c(O)c(O)c(C=O)c2c1O )
119

Can you share its superoxide response (% of plate)? I mean this compound: COc1ccc2c3c([nH]c2c1)C(C)=NCC3
102

Please look up its superoxide response (% of plate): COc1ccc(OC)c([C@@H](O)[C@H](C)NC(C)(C)C)c1
102

Given the compound O=Cc1cn(Cc2ccc(F)cc2)c2ccccc12 , what is its reported superoxide response (% of plate)?
99.1

// superoxide response (% of plate) lookup, key: NCCc1c[nH]c2ccc(F)cc12
93.9

For O=C(O)CCCc1ccc(N(CCCl)CCCl)cc1 , what is its reported superoxide response (% of plate)?
93.9

GET /values?readout=superoxide response (% of plate)&item= CCN1CC2(COC(=O)c3ccccc3N)CCC(OC)C34C5CC6C(OC)CC(O)(C5C6OC)C(O)(C(OC)C23)C14 (stereo not drawn)
99.8

Quick check: superoxide response (% of plate) of C[N+](C)(C)Cc1ccccc1 ?
89.2

State the recorded superoxide response (% of plate) for this entry: CN1C(=O)N(C)C(=O)C2(Cc3ccccc3N3CCOCC32)C1=O (stereo not drawn)
109

Which measured superoxide response (% of plate) value corresponds to Nc1ccncc1 ?
94.5

Request the reported superoxide response (% of plate) associated with Nc1ccc([As](=O)(O)O)cc1
108

Request the reported superoxide response (% of plate) associated with CC(C)[C@H]1C(=O)N2CCC[C@H]2[C@]2(O)O[C@](NC(=O)[C@@H]3C=C4c5cccc6[nH]cc(c56)C[C@H]4N(C)C3)(C(C)C)C(=O)N12
38.3

Need superoxide response (% of plate), item COc1ccc(NC2=NCC(C)S2)cc1 (stereo not drawn)
101

Give its superoxide response (% of plate) value. Item: O=C1C=Cc2ccccc2C1=O
129

Quick one: superoxide response (% of plate) for O=C1C(=O)c2ccccc2-c2ccccc21 ?
83

Would you mind telling me what superoxide response (% of plate) value was observed for CN(C)[C@@H]1C(=O)C(C(N)=O)=C(O)[C@@]2(O)C(=O)C3=C(O)c4c(O)cccc4[C@@](C)(O)[C@H]3[C@H](O)[C@@H]12 ?
99.8

Recorded superoxide response (% of plate) for c1ccc2c(c1)Nc1ccccc1S2 , please?
81.7

Look up superoxide response (% of plate): CC(=O)[C@H]1CC[C@H]2[C@@H]3CC[C@H]4C[C@H](O)CC[C@]4(C)[C@H]3C(=O)C[C@]12C
110

Look up superoxide response (% of plate) for this compound: O=C1CC[C@@]2(O)[C@H]3Cc4ccc(O)c5c4[C@@]2(CCN3CC2CC2)[C@H]1O5
95.9

Given the entry COc1ccc(-c2nc3ccccc3c(=O)o2)cc1 , report its measured superoxide response (% of plate).
99.5

Give its superoxide response (% of plate) value. Item: C[C@@H]1O[C@@H](O[C@H]2C[C@@H](O)[C@]3(CO)[C@H]4[C@H](O)C[C@]5(C)[C@@H](C6=CC(=O)OC6)CC[C@]5(O)[C@@H]4CC[C@]3(O)C2)[C@H](O)[C@H](O)[C@H]1O
103

// superoxide response (% of plate) lookup, key: CN1[C@@H]2CC[C@H]1CC(OC(=O)C1C=Nc3ccccc31)C2 (stereo partly drawn)
111

Entry under review: C[C@H]1CC[C@@]2(C)[C@@H](CC[C@@H]3[C@@H]2CC[C@]2(C)[C@@H](O)CC[C@@H]32)C1 . Reported superoxide response (% of plate)?
97.5

Which superoxide response (% of plate) value belongs to CC(C)[C@@]1(NC(=O)[C@@H]2C[C@@H]3c4cccc5[nH]cc(c45)C[C@H]3N(C)C2)O[C@@]2(O)[C@@H]3CCCN3C(=O)[C@H](Cc3ccccc3)N2C1=O ?
98.1

I have this compound here, CC(=O)Nc1cc([As](=O)(O)O)ccc1O , and I need its recorded superoxide response (% of plate).
92.8

Which measured superoxide response (% of plate) value corresponds to CN1C2CCC1CC(OC(=O)c1ccc(Cl)cc1)C2 (stereo not drawn) ?
99.6

Please look up its superoxide response (% of plate): OC(c1ccccc1)(c1ccccc1)C1CCNCC1
94.6

I have this compound here, CC12CN3CC(C)(CN(C1)C31CCOCC1)C2=O , and I need its recorded superoxide response (% of plate).
90

# query: superoxide response (% of plate) of entry C[C@H]1CCC[C@H](O)CCCCCc2cc(O)cc(O)c2C(=O)O1
106

// query superoxide response (% of plate) value for entry CC(C)(C)NCC(O)c1cc(Cl)c(N)c(Cl)c1 (stereo not drawn)
94.5

superoxide response (% of plate) lookup needed for CC[C@]12C=CCN3CCC4(c5cc(Br)c(OC)cc5N(C)C4[C@@](O)(C(=O)OC)[C@@H]1OC(C)=O)C32 (stereo partly drawn) , thanks.
95.7

Entry under review: Cc1ccc2c(c1)C1CN(C)CCC1N2C(=O)Nc1cccc(Cl)c1 (stereo not drawn) . Reported superoxide response (% of plate)?
93.4
